Tested on: MCF-7 human breast adenocarcinoma cell line
PROCEDURE_DETAILS: WST-1 cell viability assay, MCF-7
Assay type: cell-based
CONDITION_DESCRIPTION: Homo sapiens, MCF7, 24 h, WST-1, 24 h treatment, mean ± S.D of three independent experiments
pIC50: −log10 of the molar value.
PARAMETER: pIC50

Worked cases, pIC50 given:
CCSC(=S)NNC(=O)COc1nc(-c2ccc(OC)c(OC)c2)cc(-c2ccc(OC)c(OC)c2)c1C#N : 4.74
COc1ccc(C(=O)NNC(=O)COc2nc(-c3ccc(OC)c(OC)c3)cc(-c3ccc(OC)c(OC)c3)c2C#N)cc1 : 4.99
COc1ccc(-c2cc(-c3ccc(OC)c(OC)c3)c(C#N)c(OCC(=O)NNC(=O)c3ccccc3)n2)cc1OC : 5.70
CCOc1nc(-c2ccc(OC)c(OC)c2)cc(-c2ccc(OC)c(OC)c2)c1C#N : 4.81
CCCOc1nc(-c2ccc(OC)c(OC)c2)cc(-c2ccc(OC)c(OC)c2)c1C#N : 4.91

[I] COc1ccc(C=NNC(=O)COc2nc(-c3ccc(OC)c(OC)c3)cc(-c3ccc(OC)c(OC)c3)c2C#N)cc1OC
[II] CCOC(=O)COc1nc(-c2ccc(OC)c(OC)c2)cc(-c2ccc(OC)c(OC)c2)c1C#N
Lookup: Hi! Which is lower in terms of pIC50, the first one I or the second one II ? Reply briefly: the label of your chosen item.
Found: II

----------
Test system: MCF-7 human breast adenocarcinoma cell line
PROCEDURE_DETAILS: WST-1 cell viability assay, MCF-7
Assay type: cell-based
CONDITION_DESCRIPTION: Homo sapiens, MCF7, 24 h, WST-1, 24 h treatment, mean ± S.D of three independent experiments
pIC50: −log10 of the molar value.
PARAMETER: pIC50

The following compounds have reported results that may help.
COc1ccc(-c2cc(-c3ccc(OC)c(OC)c3)c(C#N)c(OC)n2)cc1OC [Compound 4a] : 5.04
COc1ccc(-c2cc(-c3ccc(OC)c(OC)c3)c(C#N)c(OCC(=O)NNC(=S)SC)n2)cc1OC [Compound 7a] : 4.95
COc1ccc(-c2cc(-c3ccc(OC)c(OC)c3)c(C#N)c(OCC(=O)NNS(=O)(=O)c3ccccc3)n2)cc1OC [Compound 10a] : 4.87

[P] COc1ccc(-c2cc(-c3ccc(OC)c(OC)c3)c(C#N)c(OCC(=O)NNC(=S)SCCN3CCCCC3)n2)cc1OC [Compound 7d]
[Q] COc1ccc(S(=O)(=O)NNC(=O)COc2nc(-c3ccc(OC)c(OC)c3)cc(-c3ccc(OC)c(OC)c3)c2C#N)cc1 [Compound 10b]
Lookup: Which has the smaller recorded pIC50, P or Q ? // return label of chosen record
Found: P
(P: 4.84, Q: 5.09)

----------
Test system: MCF-7 human breast adenocarcinoma cell line
PROCEDURE_DETAILS: WST-1 cell viability assay, MCF-7
Format: cell-based
CONDITION_DESCRIPTION: Homo sapiens, MCF7, 24 h, WST-1, 24 h treatment, mean ± S.D of three independent experiments
pIC50: −log10 of the molar value.
PARAMETER: pIC50

COc1ccc(-c2cc(-c3ccc(OC)c(OC)c3)c(C#N)c(OCC(=O)N3N=C(C)CC3=O)n2)cc1OC : < 4.30
COc1ccc(-c2cc(-c3ccc(OC)c(OC)c3)c(C#N)c(OCc3nnc(S)o3)n2)cc1OC : < 4.30

Lookup: Please report the measured pIC50 for COC(=O)c1c(SC)nn(C(=O)COc2nc(-c3ccc(OC)c(OC)c3)cc(-c3ccc(OC)c(OC)c3)c2C#N)c1N [Compound 13a]
Found: < 4.30

Source listed as paper PMC6274259.
